The measurements presented in this section are drawn from the RNAGym collection of RNA variant scans (doi:10.1126/science.aae0568).

B1: tRNA (parent)
chain: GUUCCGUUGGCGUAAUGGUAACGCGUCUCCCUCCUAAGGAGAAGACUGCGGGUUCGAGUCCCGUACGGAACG

Variants of: B1
Assay: yeast fitness relative to wild type (ratio to wild type); higher = fitter; tRNA-Arg(CCU), competitive growth, 37 C, YPD
Fewer inactive variants are shown than the library holds.
Output true (1) for yeast fitness not less than 0.6; output false (0) otherwise.

A selection of reference data follows.
sequenceInput: GUUGCGUUGGCGUAAUGGUAACGCGUCUCCCUCCUAAGGAGAUCACUGCGGGUUCGAGUCCCGUACGGAACG
assignedCategory: false (0)

sequenceInput: GUUCCGUUGGCGUAAUGGUAACGCGUCUCCAUCCUAAGGAGAAGACUGCGGCUUCGAGUCCCGCACGGAACG
assignedCategory: false (0)

sequenceInput: GUUCCGUUGGCGUAAUGGUAACGCGUCUCCCUCCUAAGGAGAAGACUGCGGGUUUGAAUCCCGUACGGAACG
assignedCategory: true (1)

sequenceInput: GUUCCGUUGGCGAAAUGGUAACGCGUCUCCCUCCUAAGGAGAAGAUUGCGGGUUCGAGUCCCGUACGGAACG
assignedCategory: true (1)

sequenceInput: GUUAUGUUGGCGUAAUGGUAAUGCGUCUCCCUCAUAAGGAGAAGACUGCGGGUUCGAGUCCUGUACGGAUCG
assignedCategory: false (0)

sequenceInput: GUUCCGUUGACGUAAUGGUAACGCGUCUCCCUCCUAAGGAGAAGACUGCGGGUUCGAGUCCCCUGCGGAACG
assignedCategory: false (0)

Please tell me: is the variant GUUCCGUUGGCGUAAUGGUAACGCGUCUCACUCCUAAGGAGAAGACUGAGGGUUCGAGUCCCGUACGGAACG at or over 0.6 in terms of yeast fitness?
true (1)

Please tell me: is the variant GUUCCGUUGGCGUACUGGUAACGCGUCUCCCUCCUAAGGAGAAGACUGCGGCUUCGAGUCCCGUACGGAACG at or over 0.6 in terms of yeast fitness?
false (0)

Please tell me: is the variant GUUCCGUUGGAGUACUGGUAACGCGACUUCCUACUAACGAGAAGACUGCGGGUUAGAGUUCCGUACGGAACG at or over 0.6 in terms of yeast fitness?
false (0)

Please tell me: is the variant GUUCCGUUGGCGUAAUGGUAAAGCGUGUCCCUCCUAACGAGACGACUGCGGGUUCGAGUCCCGUAUGGGACG at or over 0.6 in terms of yeast fitness?
false (0)

Please tell me: is the variant GUUCCGUUGGCGUAAUGGUAACGCGUCUCCCUCCUAUGGAGAAGACUGCGGGUUCGAGCCCCGUACGGAACG at or over 0.6 in terms of yeast fitness?
true (1)

Please tell me: is the variant GUUCGGUUGGCGUAAUGGUAACGCGUCUCCCUCCUAAGGAGAAGACUGCGGGUUCGAGUCCCGUUGGGAACG at or over 0.6 in terms of yeast fitness?
false (0)

Please tell me: is the variant GUUUCGUUGGCGUAAUGGUUACGCGUCUCCCUCCUAAGGUGAAGACUGCGGAUUCGAGUCCCGUACGGUACG at or over 0.6 in terms of yeast fitness?
false (0)

Please tell me: is the variant GUUCCGUUGGCGUAAUGGUAACGCGUCUCCCUCCUAAGGAGAAGACUGCGGAUUCGCGUCCCGUCCGGAACG at or over 0.6 in terms of yeast fitness?
true (1)

Please tell me: is the variant GUUCCAUUGGCGUAAUCGUAACGCGUCUCCAUCCUUAGGAGAAGACUGCGGGUUCGAGUCCCGUACGGAACG at or over 0.6 in terms of yeast fitness?
false (0)

Please tell me: is the variant GUUCCGUUGGUGCAAUGGUCAGGCGUCUCCCUCCUAAGGAGAAGACUGCGGGUUCGAGUCCCGUACGGAACG at or over 0.6 in terms of yeast fitness?
false (0)

Please tell me: is the variant GUUCCCUUGGCGUAAUAGUAACGCGUCUCUCUCCUAAGGAGCAGACUGCGGCUUCGAGUCCCAUUCGGAACG at or over 0.6 in terms of yeast fitness?
false (0)

Please tell me: is the variant GUUCCGUUAGCGUAAUGGUAACGCGUCUCCCUCCUAACGACAAGGCUGCGGGUUCGAGUCCCGUACGGAACG at or over 0.6 in terms of yeast fitness?
false (0)
